# Test Target: MBP-HTT(1-89)Q46-His(6×) (“Exon1-Q46”) protein aggregates (Homo sapiens, UniProt P42858, INS38QQQQQQQQQQQQQQQQQQQQQQQQQ)
# Construct: MBP-HTT(1-89)Q46-His(6×); His(6×) (C); made in house
# Sequence (P42858 with tags, fused parts or gaps with the stated changes limits assumed): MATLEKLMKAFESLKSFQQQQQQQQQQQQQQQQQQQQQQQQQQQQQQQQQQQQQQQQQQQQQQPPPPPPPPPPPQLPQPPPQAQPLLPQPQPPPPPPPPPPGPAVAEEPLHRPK
# Test Details: Exon1-Q46 Radioligand Binding Assay
# Settings: displacement of 0.3 nM [3H3-methyl]-5-((5-methoxypyridin-2-yl)methoxy)-2-(pyrazin-2-yl)benzo[d]oxazole from 1 μM aggregated Exon1-Q46, 60 minutes at 37° C.; read-out: Potency Range (IC50)
pIC50: −log10 of the molar value.
Field: pIC50. Provide a value for each of the molecules that follow.

In: Which pIC50 is listed for O=C(CCn1c(=O)c2cccn2c2ccc(F)cc21)NCC1CCCCC1 ?
Out: > 7.00

In: Which pIC50 is listed for Cc1cccc(NC(=O)CCCn2c(=O)c3cccn3c3ccc(F)cc32)c1 ?
Out: > 7.00

In: Which pIC50 is listed for O=C(CCn1c(=O)c2cccn2c2ccc(F)cc21)N1CCc2cnccc21 ?
Out: > 7.00

In: Which pIC50 is listed for O=C(CCn1c(=O)c2ccnn2c2ccc(F)cc21)Nc1ccncc1F ?
Out: > 7.00

In: Which pIC50 is listed for CN(C)C(=O)CCn1c(=O)c2cccn2c2ccc(F)cc21 ?
Out: > 7.00

In: Which pIC50 is listed for C[C@@H]1CN(C(=O)CCCn2c(=O)c3cccn3c3ccc(F)cc32)C[C@@H]1C ?
Out: > 7.00

In: Which pIC50 is listed for Cn1ncc2c(=O)n(CCC(=O)Nc3ccc(Cl)cc3F)c3cc(F)ccc3c21 ?
Out: > 7.00

In: Which pIC50 is listed for COc1ccncc1NC(=O)CCn1c(=O)c2cccn2c2ccc(F)cc21 ?
Out: > 7.00

In: Which pIC50 is listed for O=C(CCn1c(=O)c2cccn2c2ccc(F)cc21)NCCc1ccccc1 ?
Out: > 7.00

###

# Test Target: MBP-HTT(1-89)Q46-His(6×) (“Exon1-Q46”) protein aggregates (Homo sapiens, UniProt P42858, INS38QQQQQQQQQQQQQQQQQQQQQQQQQ)
# Construct: MBP-HTT(1-89)Q46-His(6×); His(6×) (C); made in house
# Test Details: Exon1-Q46 Radioligand Binding Assay
# Settings: displacement of 0.3 nM [3H3-methyl]-5-((5-methoxypyridin-2-yl)methoxy)-2-(pyrazin-2-yl)benzo[d]oxazole from 1 μM aggregated Exon1-Q46, 60 minutes at 37° C.; read-out: Potency Range (IC50)
# Protocol: Exon1-Q46 Radioligand Binding Assay For experiments 30 μM MBP-Exon1-Q46 was incubated with 150 μg/mL thrombin in assay buffer (150 mM NaCl, 50 mM Tris pH 8.0) and 2 mM CaCl2 for 16 hours at 37° C. […] After drying filter plates for 1 hour at 55° C., the back of the plates were sealed with foil and 30 μL/well scintillation fluid (Packard MicroScint 40) added, incubated for 15 minutes in the dark and counted in a MicroBeta reader. […]
pIC50: −log10 of the molar value.
Assay Readout: pIC50

In: Which pIC50 is listed for Cn1ncc2c(=O)n(CCC(=O)Nc3cccc(F)c3F)c3cc(F)ccc3c21 [Example 9-13] ?
Out: > 7.00

In: Which pIC50 is listed for COc1ccc(NC(=O)CCCn2c(=O)c3cccn3c3cccnc32)cc1 [Example 4-7] ?
Out: > 7.00

In: Which pIC50 is listed for O=C(Cn1c(=O)c2cccn2c2ccc(F)cc21)N1CCCCC1 [Example 29-3] ?
Out: > 7.00

In: Which pIC50 is listed for CN(C)CCNC(=O)CCCn1c(=O)c2cccn2c2ccc(F)cc21 [Example 1-30] ?
Out: 5.00 to 6.30

In: Which pIC50 is listed for Cn1ncc2c(=O)[nH]c3cc(F)ccc3c21 [Example 9-22] ?
Out: > 7.00
